tgt: humanDOR (Homo sapiens, UniProt P41143)
protocol.text: Receptor binding with [3H]diprenorphine at human DOR
measurement.setup: PZM analogs; (n) = number of independent experiments; read-out: binding affinity Ki hDOR
Attribute: Ki

molecule | Ki [nM]
CN(C)[C@H](CNC(=O)OCCc1ccsc1)Cc1ccc(O)cc1 | 570
COc1cccc(CCNC(=O)NCC(Cc2ccc(O)cc2)N(C)C)c1 (stereo not shown) | 220
CN(C)[C@H](CNC(=O)NCCCCN1C(=O)C=CC1=O)Cc1ccc(O)cc1 | 4900
CN(C)[C@H](CNC(=S)NCCc1ccsc1)Cc1ccc(O)cc1 [drawing 501] | 70
O=C(NCCc1ccccc1)NC[C@H](Cc1ccc(O)cc1)N1CCCC1 | 1500
CN(C)[C@H](CNC(=O)NCCN1C(=O)C=CC1=O)Cc1ccc(O)cc1 | 450
CN[C@H](CNC(=O)N[C@@H](C)Cc1ccsc1)Cc1ccc(O)cc1 | 700
CN(C)[C@H](CNC(=O)NC(C)(C)Cc1ccccc1)Cc1ccccc1 | 3300
C[C@@H](Cc1ccsc1)NC(=O)NC[C@@H](Cc1ccc(O)cc1)N(C)C | 4800
Cc1ccc([C@H](C)NC(=O)NC[C@H](Cc2ccc(O)cc2)N(C)C)cc1 [drawing 523] | 700

###

tgt: hMOR (Homo sapiens)
Sequence (P35372 whole entry): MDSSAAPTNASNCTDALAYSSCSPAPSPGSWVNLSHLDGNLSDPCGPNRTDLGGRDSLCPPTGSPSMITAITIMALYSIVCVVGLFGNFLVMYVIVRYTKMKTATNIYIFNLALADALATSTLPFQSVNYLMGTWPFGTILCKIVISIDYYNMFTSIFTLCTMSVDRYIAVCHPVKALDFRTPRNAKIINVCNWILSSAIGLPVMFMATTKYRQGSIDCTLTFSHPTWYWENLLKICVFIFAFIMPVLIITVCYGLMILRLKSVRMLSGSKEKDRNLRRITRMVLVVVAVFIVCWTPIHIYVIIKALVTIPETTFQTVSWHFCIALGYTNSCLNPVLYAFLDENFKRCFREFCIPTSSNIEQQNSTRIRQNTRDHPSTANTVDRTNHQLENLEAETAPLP
protocol.text: Receptor binding with [3H]diprenorphine at hMOR
The molecules listed here are annotated with their Ki.

molecule | tgt | Ki / nM
Cc1ccc([C@H](C)NC(=O)NC[C@H](Cc2ccc(O)cc2)N(C)C)cc1 [DD 51LS] | hMOR (Homo sapiens) | 150
CN(C)[C@H](CNC(=O)NCCc1cn(Cc2ccccc2)nn1)Cc1ccc(O)cc1 | hMOR (Homo sapiens) | 200
CN(C)[C@H](CNC(=O)NCCN1C(=O)C2C3C=CC(O3)C2C1=O)Cc1ccc(O)cc1 (some centres unmarked) | hMOR (Homo sapiens) | 2300
CN(CCO)C(CNC(=O)NCCc1ccccc1)Cc1ccc(O)cc1 (centres unmarked) | hMOR (Homo sapiens) | 970
CN(C)[C@H](CNC(=O)NCCc1c[nH]nn1)Cc1ccc(O)cc1 | hMOR (Homo sapiens) | 960

###

The following compounds are listed with their measured pKi values.
tgt: humanDOR (Homo sapiens, UniProt P41143)
protocol.text: Receptor binding with [3H]diprenorphine at human DOR
pKi: −log10 of the molar value.

compound | tgt | pKi
CN(C)[C@H](CNC(=O)NCCN1C(=O)C2C3C=CC(O3)C2C1=O)Cc1ccc(O)cc1 (stereo partly shown) | humanDOR (Homo sapiens, UniProt P41143) | 4.44
CN(C)[C@H](CNC(=O)NCCc1c[nH]nn1)Cc1ccc(O)cc1 | humanDOR (Homo sapiens, UniProt P41143) | 5.33
CN(CCO)C(CNC(=O)NCCc1ccccc1)Cc1ccc(O)cc1 (stereo not shown) | humanDOR (Homo sapiens, UniProt P41143) | 5.74
Cc1ccc([C@H](C)NC(=O)NC[C@H](Cc2ccc(O)cc2)N(C)C)cc1 [DD 51LS] | humanDOR (Homo sapiens, UniProt P41143) | 6.15

###

tgt: μOR (Homo sapiens)
protocol.text: biochemical
Type: binding
Set-up: expressed in transfected cells; host or cells: HEK293 membranes (Ki); Sf9 insect cell membranes (single-point screen); PDSP for analogs
measurement.setup: analogs, full dose-response; read-out: μOR Ki
pKi: −log10 of the molar value.
# pKi annotations
measured.quantity: pKi

compound | experimental.value
CC(C)[C@H](CNC(=O)c1ccc([N+](=O)[O-])s1)N1CCc2ccccc2C1 [compound 8] | 6.09
CN(C)[C@@H](CNC(=O)NC[C@@H](O)c1cnn(C)c1)Cc1ccccc1 [compound 11] | 5.73

###

tgt: μOR (Homo sapiens, UniProt P35372)
protocol.text: cell-based
Assay type: cell-based
measurement.setup: Gi/o EC50 nM

compound | tgt | unit.abbreviation | EC50
CN(C)[C@H](CNC(=O)NC(C)(C)Cc1ccsc1)Cc1ccc(O)cc1 [DD 32L] | μOR (Homo sapiens, UniProt P35372) | nM | 23.5
CN(C)[C@H](CNC(=S)NCCc1ccsc1)Cc1ccc(O)cc1 [DD81] | μOR (Homo sapiens, UniProt P35372) | nM | 15.1
C[C@@H](Cc1ccsc1)NC(=O)NC[C@H](Cc1ccc(O)c(CO)c1)N(C)C [DD131] | μOR (Homo sapiens, UniProt P35372) | nM | 7.94
C[C@@H](Cc1ccsc1)NC(=O)NC[C@H](Cc1cccc(O)c1)N(C)C [DD 47LS] | μOR (Homo sapiens, UniProt P35372) | nM | 17

###

tgt: humanDOR (Homo sapiens, UniProt P41143)
protocol.text: Receptor binding with [3H]diprenorphine at human DOR
measurement.setup: PZM analogs; (n) = number of independent experiments; read-out: binding affinity Ki hDOR
pKi: −log10 of the molar value.
Recorded pKi values for a group of molecules are listed next.

molecule | pKi
C[C@H](Cc1csc2ccccc12)NC(=O)NC[C@H](Cc1ccc(O)cc1)N(C)C | 7.08
Cc1cc(O)cc(C)c1C[C@@H](CNC(=O)N[C@@H](C)Cc1ccsc1)N(C)C [drawing 538] | 7.07
CN(C)[C@@H](CNC(=O)NCCc1ccsc1)Cc1ccccc1 | 4.60
C[C@@H](Cc1ccsc1)NC(=O)NC[C@H](Cc1cccc(O)c1)N(C)C [drawing 531] | 6.46

###

tgt: κOR (Homo sapiens, UniProt P41145)
Construct: NIMH Psychoactive Drug Screening Program (PDSP)
Sequence (P41145 whole entry): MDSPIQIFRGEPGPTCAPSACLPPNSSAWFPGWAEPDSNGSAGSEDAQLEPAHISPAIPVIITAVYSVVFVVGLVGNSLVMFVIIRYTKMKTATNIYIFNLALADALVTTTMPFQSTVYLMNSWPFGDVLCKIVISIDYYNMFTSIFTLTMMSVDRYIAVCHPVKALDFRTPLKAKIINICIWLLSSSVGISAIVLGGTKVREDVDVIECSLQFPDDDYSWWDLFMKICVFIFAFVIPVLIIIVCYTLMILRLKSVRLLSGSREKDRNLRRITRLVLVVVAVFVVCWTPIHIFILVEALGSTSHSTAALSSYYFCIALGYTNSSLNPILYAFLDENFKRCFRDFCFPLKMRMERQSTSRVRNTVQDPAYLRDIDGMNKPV
protocol.text: Radioligand binding at κOR (PDSP)
measurement.setup: Ki (nM) κOR
Catalogue of Ki values

molecule | Ki [nM]
C[C@H](Cc1ccsc1)NC(=O)NC[C@@H](Cc1ccccc1)N(C)C [compound 12] | 464
C[C@@H](Cc1ccsc1)NC(=O)NC[C@H](Cc1ccc(O)cc1)N(C)C [PZM21] | 18

###

tgt: MM1 (MOR N127C) (Homo sapiens, UniProt P35372, N129C)
Construct: expressed in transfected cells; host or cells: HEK 293
protocol.text: Receptor binding at MM1 (MOR N127C)
measurement.setup: (n) = number of independent experiments; read-out: binding affinity Ki MM1 (MOR N127C)

molecule | tgt | unit.abbreviation | Ki
C[C@@H](CN1C(=O)C=CC1=O)NC(=O)NC[C@H](Cc1ccc(O)cc1)N(C)C | MM1 (MOR N127C) (Homo sapiens, UniProt P35372, N129C) | nM | 5.6
C[C@H](CN1C(=O)C=CC1=O)NC(=O)NC[C@H](Cc1ccc(O)cc1)N(C)C | MM1 (MOR N127C) (Homo sapiens, UniProt P35372, N129C) | nM | 0.13
C[C@@H](Cc1ccsc1)NC(=O)NC[C@H](Cc1ccc(O)nc1)N(C)C | MM1 (MOR N127C) (Homo sapiens, UniProt P35372, N129C) | nM | 3800
CN(C)[C@H](CNC(=O)NCCCCN1C(=O)C=CC1=O)Cc1ccc(O)cc1 | MM1 (MOR N127C) (Homo sapiens, UniProt P35372, N129C) | nM | 5.9
CN(C)[C@H](CNC(=O)NCCCN1C(=O)C=CC1=O)Cc1ccc(O)cc1 | MM1 (MOR N127C) (Homo sapiens, UniProt P35372, N129C) | nM | 4.7
Cc1cc(O)cc(C)c1C[C@@H](CNC(=O)NCCN1C(=O)C=CC1=O)N(C)C | MM1 (MOR N127C) (Homo sapiens, UniProt P35372, N129C) | nM | 0.93
CN(C)[C@H](CNC(=O)NCCN1C(=O)C=CC1=O)Cc1ccc(O)cc1 | MM1 (MOR N127C) (Homo sapiens, UniProt P35372, N129C) | nM | 3.7
CN(C)[C@H](CNC(=O)NCCc1cn(CCSSCCN=[N+]=[N-])nn1)Cc1ccc(O)cc1 [drawing 545] | MM1 (MOR N127C) (Homo sapiens, UniProt P35372, N129C) | nM | 34

###

tgt: hKOR (Homo sapiens, UniProt P41145)
Sequence (P41145 whole entry): as above
protocol.text: Receptor binding with [3H]diprenorphine at hKOR
Ki by entry:
measured.quantity: Ki (nM)

compound | tgt | measured.quantity | experimental.value
CN(C)[C@H](CNC(=O)NCCc1c[nH]nn1)Cc1ccc(O)cc1 | hKOR (Homo sapiens, UniProt P41145) | Ki | 1400
Cc1ccc([C@H](C)NC(=O)NC[C@H](Cc2ccc(O)cc2)N(C)C)cc1 [DD 51LS] | hKOR (Homo sapiens, UniProt P41145) | Ki | 180
CN(C)[C@H](CNC(=O)NCCN1C(=O)C2C3C=CC(O3)C2C1=O)Cc1ccc(O)cc1 (some centres unmarked) | hKOR (Homo sapiens, UniProt P41145) | Ki | 8200
CN(C)[C@H](CNC(=O)NCCc1cn(Cc2ccccc2)nn1)Cc1ccc(O)cc1 | hKOR (Homo sapiens, UniProt P41145) | Ki | 1400
CN(CCO)C(CNC(=O)NCCc1ccccc1)Cc1ccc(O)cc1 (centres unmarked) | hKOR (Homo sapiens, UniProt P41145) | Ki | 1300
